Cited source: patent US20250161472A1

target: T1, human ROR2 (receptor tyrosine kinase-like orphan receptor 2) (human, UniProt Q01974 34-403, limits assumed); assay: affinity ELISA on human ROR2, pH 6.0; design: unit not given here
T1 construct: Antigen of the ELISA, SPR and pH titration assays; also called hROR2
T1 sequence (Q01974 34-403 limits assumed): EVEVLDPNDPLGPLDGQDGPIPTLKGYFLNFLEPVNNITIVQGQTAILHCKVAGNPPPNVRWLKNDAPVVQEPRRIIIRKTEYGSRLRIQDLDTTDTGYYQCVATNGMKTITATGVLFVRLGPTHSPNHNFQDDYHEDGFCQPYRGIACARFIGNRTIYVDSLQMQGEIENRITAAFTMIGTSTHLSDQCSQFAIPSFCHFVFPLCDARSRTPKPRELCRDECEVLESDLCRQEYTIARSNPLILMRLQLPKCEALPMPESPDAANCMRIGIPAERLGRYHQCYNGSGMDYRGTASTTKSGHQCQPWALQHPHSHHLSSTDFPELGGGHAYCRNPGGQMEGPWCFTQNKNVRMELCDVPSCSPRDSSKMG
resultType: Affinity ELISA, pH 6.0
Lab note: jot down the number only; don't add units.

Examples with answers:
binder: LC-Q089E (antibody, V domains shown, CPE single point mutant of parent VL 48.6-LC-WT) VH: EVQLQQSGPELVKPGASVKISCKTSGYTFTEYTMHWMKQSHRKSLEWIGGINTNNGGTGYNQKFKGKATLTVDKSSSTAYMELRSLTSEDSAVYFCARGSLYSYGNSYFDYWGQGTLVTVSS VL: QIVLTQSPAIMSASPGEKVTITCSATSSVSYMHWFQQKPGTSPKLWIYGTSNLASGVPARFSGSGSGTSYSLTISRMEAEDAATYYCQERSSYPFTFGQGTKVEIK
Affinity ELISA, pH 6.0: 0.438
//
binder: LC-R090H (antibody, V domains shown, CPE single point mutant of parent VL 48.6-LC-WT) VH: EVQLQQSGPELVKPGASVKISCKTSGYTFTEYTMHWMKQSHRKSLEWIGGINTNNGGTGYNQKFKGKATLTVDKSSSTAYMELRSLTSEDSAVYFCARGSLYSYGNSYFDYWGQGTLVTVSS VL: QIVLTQSPAIMSASPGEKVTITCSATSSVSYMHWFQQKPGTSPKLWIYGTSNLASGVPARFSGSGSGTSYSLTISRMEAEDAATYYCQQHSSYPFTFGQGTKVEIK
Affinity ELISA, pH 6.0: 0.56
//
binder: LC-S030D (antibody, V domains shown, CPE single point mutant of parent VL 48.6-LC-WT) VH: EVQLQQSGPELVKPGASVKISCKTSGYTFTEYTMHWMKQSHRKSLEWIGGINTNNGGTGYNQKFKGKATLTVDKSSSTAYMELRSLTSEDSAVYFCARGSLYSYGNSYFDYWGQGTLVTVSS VL: QIVLTQSPAIMSASPGEKVTITCSATSSVDYMHWFQQKPGTSPKLWIYGTSNLASGVPARFSGSGSGTSYSLTISRMEAEDAATYYCQQRSSYPFTFGQGTKVEIK
Affinity ELISA, pH 6.0: 0.733

We now examine a further binder.
Lab note: LC-S092V (antibody, V domains shown, CPE single point mutant of parent VL 48.6-LC-WT) VH: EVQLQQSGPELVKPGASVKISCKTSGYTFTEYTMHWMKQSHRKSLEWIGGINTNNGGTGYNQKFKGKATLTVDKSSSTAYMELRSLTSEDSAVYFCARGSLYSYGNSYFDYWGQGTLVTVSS VL: QIVLTQSPAIMSASPGEKVTITCSATSSVSYMHWFQQKPGTSPKLWIYGTSNLASGVPARFSGSGSGTSYSLTISRMEAEDAATYYCQQRSVYPFTFGQGTKVEIK gave Affinity ELISA, pH 6.0 of 1.23
